Target: T1, SNTB1, Q13884
T1 sequence (Q13884 107-205, limits assumed, looked up): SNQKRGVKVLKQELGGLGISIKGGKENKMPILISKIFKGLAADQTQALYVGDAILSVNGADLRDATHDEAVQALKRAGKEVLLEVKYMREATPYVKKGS
Assay: holdup assay
Parameters: key: below the threshold = too weak to quantify, mostly under pKd 3.1 to 4
Conditions: plain residues with an end cap or a label only (N-terminal biotin on a linker: ado-ado)
Assay Readout: pKd

Some binders with known pKd results, for comparison:
EALLQMESVA [CAVIN3, Q969G5]; below the threshold
LSEFKAMDSI [CTNNA1, P35221]; below the threshold
RKPKPSSSCC [RAB9A, P51151]; below the threshold
PLSPEQPTKL [TRIM50, Q86XT4]; below the threshold
PKRSFIESNV [TANC1, Q9C0D5]; 5

Q. Fill in reported pKd for this entry: DDPSTAETVL [ABCA7, Q8IZY2]
A. 4.87

Q. Fill in reported pKd for this entry: RHGSCVETSL [TMEM151B, Q8IW70]
A. 4.88

Q. Fill in reported pKd for this entry: VNKSKLLTDV [KCNA1, Q09470]
A. below the threshold

Q. Fill in reported pKd for this entry: QKNRKAQEDL [CES3, Q6UWW8]
A. below the threshold

Q. Fill in reported pKd for this entry: PPYRHRNTVV [ERBB4, Q15303]
A. 5

Q. Fill in reported pKd for this entry: TPPAAKKSRI [BAZ1A, Q9NRL2]
A. below the threshold

Q. Fill in reported pKd for this entry: DTTVPESEDL [MYOZ2, Q9NPC6]
A. below the threshold

Q. Fill in reported pKd for this entry: VYPNAKVELV [PDLIM4_iso2, P50479;P50479-1]
A. below the threshold

Q. Fill in reported pKd for this entry: QMNQTLPVQV [EPHB3, P54753]
A. below the threshold

Q. Fill in reported pKd for this entry: SKENVQETQI [LRRC4B, Q9NT99]
A. 5.07

Q. Fill in reported pKd for this entry: IPLDGETEEL [MYOZ1, Q9NP98]
A. below the threshold

Q. Fill in reported pKd for this entry: EKKTLIGIKL [GOT1L1, Q8NHS2]
A. below the threshold

Q. Fill in reported pKd for this entry: YNNCLEILRV [DCAF7, P61962]
A. below the threshold

Q. Fill in reported pKd for this entry: RRLPGKETMA [GRIK2, Q13002]
A. below the threshold

Values compiled from paper PMC9482650.
